- conditionSummary: 20.0 µM
experimentalEndpoint: relative solubility at 20 uM

Sample records with relative solubility at 20 uM:
>  <compound>
N#Cc1ccccc1S(=O)(=O)N1CCN(C(=O)c2cc(=O)[nH]c3cc(F)ccc23)CC1

>  <relative solubility at 20 uM>
0.94

$$$$
>  <compound>
Cc1ccncc1Cn1ccccc1=O

>  <relative solubility at 20 uM>
1

$$$$
>  <compound>
CC(C)(Cn1c(C2CCC(=O)N2)nnc1N1CCCC(C(N)=O)C1)c1ccccc1F (stereo unspecified)

>  <relative solubility at 20 uM>
1

$$$$
>  <compound>
Cc1c(C(=O)NC(CC(=O)O)c2cccc(Cl)c2)cnc2ccccc12 (stereo unspecified)

>  <relative solubility at 20 uM>
1

$$$$
>  <compound>
C=CC(=O)N(c1ccc(C(C)(C)C)cc1)C(C(=O)NCCSC)c1cccnc1 (stereo unspecified)

>  <relative solubility at 20 uM>
1

$$$$
>  <compound>
O=C(CC(=O)N1CCOCC1)NC1CCCCC1

>  <relative solubility at 20 uM>
0.99

$$$$
>  <compound>
CNc1ccc(N(Cc2ccsc2)C(=O)Cn2nnc3ccccc32)cc1

>  <relative solubility at 20 uM>
0.99

$$$$
>  <compound>
C=CC(=O)N(c1ccc(C(C)(C)C)cc1)C(C(=O)NCCCOC)c1cccnc1 (stereo unspecified)

>  <relative solubility at 20 uM>
0.99

$$$$

Fill in relative solubility at 20 uM for each of the 3 compounds listed.
1. Cc1ccncc1NC(=O)Nc1cccc(Cl)c1
2. Cc1ccncc1-c1nnc(-c2cccc(Cl)c2)o1
3. Sc1nc2ccccc2c2nc(CCc3ccccc3)nn12

Solution:
1: 0.99; 2: 1; 3: 0.93
